Cited source for all entries: ChEMBL document CHEMBL4304746

# test: Microsomal stability in Sprague-Dawley rat liver microsomes assessed as parent compound remaining at 10 uM after 30 mins in presence of NADPH-regenerating system by LC-MS analysis
# experimental_context: microsomes
value_type: remaining at 0.5 h, 10 µM (%)
Numbers only, in %.

Would you mind telling me what remaining at 0.5 h, 10 µM value was observed for O=C(O)c1ccccc1NC(=O)N1CCC(c2ccccc2C(F)(F)F)CC1 ?
85

* * *

Heads up, these compounds all have IC50 values measured for Retinol-binding protein 4 (Homo sapiens, UniProt P02753).
One number for each entry, in nM.

Record excerpt, results attached:
O=C(c1n[nH]c2cc(Cl)ccc12)N1CCC(c2ccccc2C(F)(F)F)CC1 = 7.53
O=C(c1nnc2ccc(F)cn12)N1CCC(c2ccccc2C(F)(F)F)CC1 = 4.55
O=C(c1cn2nc(N3CCOCC3)ccc2n1)N1CCC(c2ccccc2C(F)(F)F)CC1 = 6.74
CN(C)C(=O)Nc1ccc2nnc(C(=O)N3C[C@H]4C[C@@H](c5ccccc5C(F)(F)F)C[C@H]4C3)n2c1 = 14.6
CCOc1ccc2nnc(C(=O)N3CCC(c4ccccc4C(F)(F)F)CC3)n2c1 = 3.97

// for each compound in input: emit IC50
1. CC(C)n1nc(C(=O)N2CCC(c3ccccc3C(F)(F)F)CC2)c2ccc(F)cc21
2. O=C(c1nnc2ccc(C(F)(F)F)cn12)N1C[C@H]2C[C@@H](c3ccccc3C(F)(F)F)C[C@H]2C1

1: 128; 2: 3.4

Quick request: IC50 for each listed item, please.
1. O=C(c1cn2ncccc2n1)N1CCC(c2ccccc2C(F)(F)F)CC1
2. O=C(c1cn2nc(N3CCCC3)ccc2n1)N1CCC(c2ccccc2C(F)(F)F)CC1
3. O=C(c1nnc2ccc(Cl)cn12)N1CCC(c2ccccc2C(F)(F)F)CC1
4. COc1ccc2nnc(C(=O)N3C[C@H]4C[C@@H](c5ccccc5C(F)(F)F)C[C@H]4C3)n2c1

4.98
10.8
4.01
6
